System: IGROV1 ovarian
Experiment: NCI tumour cell line growth inhibition, 48 h

| molecule | GI50 |
| --- | --- |
| O=C(CCc1ccc(O)cc1)N/N=C/c1cc(Br)ccc1O | 6.23 µM |
| C=CC(COC(c1ccccc1)(c1ccccc1)c1ccccc1)N(CC)CC (stereo not drawn) | 5.09 µM |
| O=C1C(Cl)=C(Nc2cccc(C(F)(F)F)c2)C(=O)N1Cc1ccc(Cl)cc1 | 2.76 µM |
| COC(=O)C(C)NC(=O)c1ccccc1I(OS(=O)(=O)C(F)(F)F)c1ccccc1 (stereo not drawn) | 36.4 µM |
| N.N.O=P([O-])([O-])C1(P(=O)([O-])[O-])CCCCCN1.[Pt+2] | > 100 µM |
| Cc1cc(Nc2cc(N)ncn2)c(=O)n2c1C(=O)NC21CCCCC1 | 46.7 µM |
| O=C(CCCCC(=O)N/N=C\c1ccccc1O)N/N=C\c1ccccc1O | 3.49 µM |
| Cc1ccc([C@]2(C)CC[C@H](C)/C2=C\Br)c(O)c1 | 3.07 µM |
| Cc1cc(C(=O)c2ccccc2)c(C)c2c1[nH]c1ccc(Cl)cc12 | 0.0657 µM |
| Cc1ccc(Sc2cc3c(oc2=O)-c2ccccc2OC3O)cc1 (stereo not drawn) | 22.4 µM |
| CCC[CH2][Sn]1([CH2]CCC)[O]CC(C)[O]1 (stereo not drawn) | 1.88 µM |
| O=C(NC(=S)Nc1cc(Cl)ccc1O)c1cccc(Br)c1 | 9.67 µM |
| O=C1OCC2=C1C(c1ccccc1)c1cc3c(cc1N2CCO)OCCO3 (stereo not drawn) | 0.161 µM |
| Nc1c(C(=O)Nc2cccc(Cl)c2Cl)sc2nc3c(cc12)C(=O)CCC3 | > 100 µM |
| COc1c(B(O)O)cc(F)cc1-c1nc2ccc3[nH]ncc3c2c2c1CCCC2 | 1.49 µM |
| Cn1cc(C2=C(N3CCOCC3)C(=O)NC2=O)c2ccccc21 | > 25 µM |
| CC(=O)c1nc2ccccc2n1CC(=O)c1cccc(Cl)c1 | 0.543 µM |
| NC(=S)NN=C1CSSC1 | 5 µM |
